# reported CD46 expression, Post-Treatment Biopsy; entries follow
# System: CD46 expression
# Measurement protocol: CD46 expression by RNA-sequencing in paired tumor biopsies before and after therapy;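 also: FFPE human tumor biopsies, exome-capture RNA-seq, reads aligned to GRCh37, counts normalized for GC content, length and depth, summed per gene, log2-transformed, samples paired before versus after therapy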
# Assay conditions: Non-Small Cell Lung Cancer; paired biopsies; RNA-seq log2-transformed counts
Measure: CD46 expression, Post-Treatment Biopsy

Molecule | Number
N.N.O=C([O-])C1(C(=O)[O-])CCC1.[Pt+2] [carboplatin] | 6.07
N.N.[Cl][Pt][Cl] [cisplatin] | 5.85
Nc1nc2[nH]cc(CCc3ccc(C(=O)N[C@@H](CCC(=O)O)C(=O)O)cc3)c2c(=O)[nH]1 [pemetrexed] | 6.22
CC(=O)O[C@H]1C(=O)[C@@]2(C)[C@H]([C@H](OC(=O)c3ccccc3)[C@]3(O)C[C@H](OC(=O)[C@H](O)[C@@H](NC(=O)c4ccccc4)c4ccccc4)C(C)=C1C3(C)C)[C@]1(OC(C)=O)CO[C@@H]1C[C@@H]2O [paclitaxel] | 5.89
